The reported numbers originate from ChEMBL document CHEMBL4811245.

concentration at 4 h: recorded values
# protocol description: Drug concentration in plasma of C57 mouse at 20 mg/kg, ip measured after 4 hrs by LC/MS-MS analysis
# Format: ADME, organism-based
Supply the numeric figure in ng/mL, leaving out any unit text.

Please give the measured concentration at 4 h for this molecule: O=C(NO)c1ccc(CN2CCCc3cc(Cl)ccc32)cc1
4.13

Given COc1ccc2c(c1)N(Cc1ccc(C(=O)NO)cc1)CCCC2 , state its recorded concentration at 4 h.
8.18

Value lookup for concentration at 4 h; key = O=C(NO)c1ccc(CN2CCCSc3ccccc32)cc1
7.03

Which measured concentration at 4 h value corresponds to O=C(NO)c1ccc(CN2CCCOc3ccccc32)cc1 ?
4.29
